# target-under-test: α1F295Aβ3γ2L GABAAR (Mus musculus, UniProt P22723+P62812+P63080, F322A)
# Construct: expressed in transfected cells; host or cells: HEK 293 cells (ATCC CRL-1573)
# Sequence (P62812 28-455 F322A): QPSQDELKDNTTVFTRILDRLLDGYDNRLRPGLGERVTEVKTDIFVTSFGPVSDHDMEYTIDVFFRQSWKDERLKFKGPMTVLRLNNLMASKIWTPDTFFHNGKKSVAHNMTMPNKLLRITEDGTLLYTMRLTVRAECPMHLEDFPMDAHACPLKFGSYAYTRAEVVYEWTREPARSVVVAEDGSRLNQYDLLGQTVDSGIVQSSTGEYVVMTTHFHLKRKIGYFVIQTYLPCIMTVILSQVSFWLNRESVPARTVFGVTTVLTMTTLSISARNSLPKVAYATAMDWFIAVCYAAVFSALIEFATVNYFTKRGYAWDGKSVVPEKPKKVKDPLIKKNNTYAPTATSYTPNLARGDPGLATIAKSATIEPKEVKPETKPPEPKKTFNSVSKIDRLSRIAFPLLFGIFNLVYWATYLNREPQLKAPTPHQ
# Sequence (P63080 26-473 partner): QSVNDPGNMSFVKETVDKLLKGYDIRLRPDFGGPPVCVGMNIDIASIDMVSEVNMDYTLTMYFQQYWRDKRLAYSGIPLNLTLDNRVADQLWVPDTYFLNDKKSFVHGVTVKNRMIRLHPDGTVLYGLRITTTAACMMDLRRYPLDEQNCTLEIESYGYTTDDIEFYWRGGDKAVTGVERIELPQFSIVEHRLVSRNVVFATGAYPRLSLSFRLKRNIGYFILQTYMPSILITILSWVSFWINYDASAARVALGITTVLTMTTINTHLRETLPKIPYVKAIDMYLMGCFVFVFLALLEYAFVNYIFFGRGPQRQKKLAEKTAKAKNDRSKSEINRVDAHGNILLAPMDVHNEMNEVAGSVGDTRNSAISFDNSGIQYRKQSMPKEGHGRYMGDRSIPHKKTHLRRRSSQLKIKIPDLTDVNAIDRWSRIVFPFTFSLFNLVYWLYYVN
# Sequence (P22723 39-474 partner): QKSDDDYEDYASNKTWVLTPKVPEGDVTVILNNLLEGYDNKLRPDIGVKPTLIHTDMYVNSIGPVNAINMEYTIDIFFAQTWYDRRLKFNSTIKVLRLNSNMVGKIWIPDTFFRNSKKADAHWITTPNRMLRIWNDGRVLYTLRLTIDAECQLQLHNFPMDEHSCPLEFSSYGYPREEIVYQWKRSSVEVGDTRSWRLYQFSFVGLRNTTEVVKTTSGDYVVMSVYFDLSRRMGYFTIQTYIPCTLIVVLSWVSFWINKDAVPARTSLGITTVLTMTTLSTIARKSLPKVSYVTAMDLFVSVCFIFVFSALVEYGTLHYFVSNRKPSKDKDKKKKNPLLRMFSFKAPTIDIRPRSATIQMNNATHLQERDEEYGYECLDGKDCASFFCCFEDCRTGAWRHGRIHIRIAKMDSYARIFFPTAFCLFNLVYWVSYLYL
# run-description: Whole-cell voltage-clamp electrophysiology, mutant α1F295Aβ3γ2L in HEK cells
# Format: cell-based, murine
# details: Decay inhibition (IC50), GABA current weighted decay time constant
property: IC50

For record C[C@]12CC[C@H](OS(=O)(=O)O)CC1=CCC1C2CC[C@@]2(C)C1CC[C@@H]2C(=O)Cn1cccn1 (stereo partly shown) the listed IC50 is 1400 nM

* * *

# target-under-test: α1β3γ2LV262F GABAAR (Mus musculus, UniProt P62812)
# Construct: expressed in transfected cells; host or cells: HEK 293 cells (ATCC CRL-1573)
# Sequence (P62812 28-455): as the sequence (P62812 28-455 F322A) above, with A295F counted along it
# Sequence (P63080 26-473 partner): as the sequence (P63080 26-473 partner) above
# Sequence (P22723 39-474 V300F partner): as the sequence (P22723 39-474 partner) above, with V262F counted along it
# run-description: Whole-cell voltage-clamp electrophysiology, highly desensitising mutant α1β3γ2LV262F in HEK cells
# Format: cell-based, murine
# details: Steady-state inhibition (pIC50), steady-state GABA current
property: pIC50
As a rule, pIC50 stands for the negative log10 of the concentration, concentration in M.

C[C@]12CC[C@H](OS(=O)(=O)O)CC1=CCC1C2CC[C@@]2(C)C1CC[C@@H]2C(=O)CN1CCOCC1 (some centres unmarked) [compound 5]: 4.85

Shifting focus to the compound that follows.
For reference, reported pIC50 for C[C@]12CC[C@H](OS(=O)(=O)O)CC1=CCC1C2CC[C@@]2(C)C1CC[C@@H]2C(=O)Cn1cccn1 (some centres unmarked) [compound 6] stands at 4.60

* * *

# target-under-test: α1V296Lβ3γ2L GABAAR (Mus musculus, UniProt P22723+P62812+P63080, V323L)
# Construct: expressed in transfected cells; host or cells: HEK 293 cells (ATCC CRL-1573)
# run-description: Whole-cell voltage-clamp electrophysiology, minimally desensitising mutant α1V296Lβ3γ2L in HEK cells
# Assay type: cell-based, murine
# details: Decay inhibition (IC50), GABA current weighted decay time constant
pIC50: −log10 of the molar value.
property: pIC50

Input C[C@]12CC[C@H](OS(=O)(=O)O)CC1=CCC1C2CC[C@@]2(C)C1CC[C@@H]2C(=O)Cn1cccn1 (stereo partly shown) [compound 6] . Output pIC50: < 4.00

* * *

# target-under-test: α1V296Lβ3γ2L GABAAR (Mus musculus, UniProt P22723+P62812+P63080, V323L)
# Construct: expressed in transfected cells; host or cells: HEK 293 cells (ATCC CRL-1573)
# run-description: Whole-cell voltage-clamp electrophysiology, minimally desensitising mutant α1V296Lβ3γ2L in HEK cells
# Type: cell-based, murine
# details: Steady-state inhibition (pIC50), steady-state GABA current
# Protocol: HEK 293 cells (ATCC Cat# CRL‐1573, RRID:CVCL_0045) were maintained and transfected under standard conditions. […] Before transfection, HEK cells were plated onto 22 mm of glass coverslips (VWR) coated in poly‐L‐lysine (Sigma). […] Cells were selected for electrophysiology after 16–30 h based on their morphology and moderate GFP fluorescence. Coverslips with transfected HEK cells were transferred into a recording chamber on a Nikon Eclipse FN1 microscope with a 470‐nm LED for GFP fluorescence. […]
property: IC50 (µM)
Numbers only; they are read as µM.

Recorded IC50 (compound C[C@]12CC[C@H](OS(=O)(=O)O)CC1=CCC1C2CC[C@@]2(C)C1CC[C@@H]2C(=O)CN1CCOCC1 (stereo partly shown) ): 20.7

* * *

# target-under-test: α1V296Lβ3γ2L GABAAR (Mus musculus, UniProt P22723+P62812+P63080, V323L)
# Construct: expressed in transfected cells; host or cells: HEK 293 cells (ATCC CRL-1573)
# run-description: Whole-cell voltage-clamp electrophysiology, minimally desensitising mutant α1V296Lβ3γ2L in HEK cells
# Assay type: cell-based, murine
# details: Steady-state inhibition (IC50), steady-state GABA current
pIC50: −log10 of the molar value.
property: pIC50

Measured pIC50 of C[C@]12CC[C@H](OS(=O)(=O)O)CC1=CCC1C2CC[C@@]2(C)C1CC[C@@H]2C(=O)Cn1cccn1 (stereo partly shown) : < 4.00

* * *

# target-under-test: α1F295A, F399Aβ3γ2L GABAAR (Mus musculus, UniProt P22723+P62812+P63080, F322A/F426A)
# Construct: expressed in transfected cells; host or cells: HEK 293 cells (ATCC CRL-1573)
# run-description: Whole-cell voltage-clamp electrophysiology, mutant α1F295A,F399Aβ3γ2L in HEK cells
# Assay type: cell-based, murine
# details: Steady-state inhibition (pIC50), 30 μM GABA, 20 s
# key: entry, value: IC50
I only need the number, in µM, no unit after it.

C[C@]12CC[C@H](OS(=O)(=O)O)CC1=CCC1C2CC[C@@]2(C)C1CC[C@@H]2C(=O)Cn1cccn1 (some centres unmarked) [compound 6]: 4.15

Now, please, on to the next compound.
Field IC50 (α1F295A, F399Aβ3γ2L GABAAR (Mus musculus, UniProt P22723+P62812+P63080, F322A/F426A)), entry C[C@]12CC[C@H](OS(=O)(=O)O)CC1=CCC1C2CC[C@@]2(C)C1CC[C@@H]2C(=O)CN1CCOCC1 (some centres unmarked) [compound 5] : 5.22
